Values compiled from the DeepSol protein solubility set.

- protocol-summary: soluble on expression in E. coli; label from the status in PepcDB or PDB records
parameter: soluble on expression in E. coli

### Prompt Could you tell me which soluble on expression in E. coli is on file for "MSLETDDQYYRAIKKIKEAAEASNRAYLTSSKLADMLGISQQSASRIIIDLEKNGYITRTVTKRGQILNITEKGLDVLYTEFADLSRILAIKNNVVITGTVTSGMGEGRYYVARKQYIIQFQEKLGIIPYLGTLNIKVDQASLPELRKIRGFRGIHIEGFKTEDRTFGSVKAFPAKIQNIPCFVIMPERTVYTDVIEIISDKYLREEINLHDGDRVSVEVYTEGHHHHHH" ?
### Response soluble

### Prompt Given the entry "MAGSNSRKPVVGMKIRVALVSALLAVSGCTTLSGKAPTLAPTPASTPPTSGKVTKSIISAMDGGLIGGSIGNGLSDEEKRSALEAEYKALEYTTSGQKVAWKGDQASHYGEVVPAQPYRVGSQDCRQYTQTVFTGGAGVTARGTACRNADGSWTPLTLEHHHHHH" , report its measured soluble on expression in E. coli.
### Response soluble

### Prompt What soluble on expression in E. coli value was documented for this sequence, "MKLSPSVIALSVLLSSHTLANTAGQVETCQQKAQDIQRQIDEAHKHGNQNRINGLEKALDGVKNHCTDAGLAEKRQEAIAEKRKDVAERQQELSESRQKRDDAEKILKRERKLAEAEQELRAAESGASQLEHHHHHH" ?
### Response soluble
